biological target: SHP2 protein (Homo sapiens); assay: Measurement of SHP2 protein degradation in NCI-H358 cells (western blotting); type: cell-based; set-up: endogenous in cells; host or cells: NCI-H358; conditions: 0.1 μM, harvested after 24 hours
Sequence (Q06124 whole entry): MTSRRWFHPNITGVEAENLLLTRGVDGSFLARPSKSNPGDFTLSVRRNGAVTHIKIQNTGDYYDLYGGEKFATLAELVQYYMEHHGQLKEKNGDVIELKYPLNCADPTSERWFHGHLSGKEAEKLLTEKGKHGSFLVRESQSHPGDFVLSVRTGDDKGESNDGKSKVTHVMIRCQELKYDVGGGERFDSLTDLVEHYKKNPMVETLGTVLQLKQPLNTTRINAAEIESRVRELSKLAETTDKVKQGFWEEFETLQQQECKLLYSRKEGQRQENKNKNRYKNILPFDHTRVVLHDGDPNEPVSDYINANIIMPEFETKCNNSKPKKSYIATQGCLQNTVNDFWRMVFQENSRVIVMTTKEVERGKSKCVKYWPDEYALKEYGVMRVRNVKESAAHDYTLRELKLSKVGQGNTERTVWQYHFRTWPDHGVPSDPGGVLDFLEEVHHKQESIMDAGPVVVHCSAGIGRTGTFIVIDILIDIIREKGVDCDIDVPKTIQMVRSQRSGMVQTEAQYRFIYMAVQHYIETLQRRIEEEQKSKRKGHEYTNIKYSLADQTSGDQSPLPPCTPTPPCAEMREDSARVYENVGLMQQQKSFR
observed.property: SHP2% degradation (%)
Number only, in %; omit the unit.

The cases that follow already have their SHP2% degradation on record.
# compound, target.or.test.system, measured.result
records = [
    ("CC(=O)N[C@H](C(=O)N1C[C@H](O)C[C@H]1C(=O)NCc1ccc(-c2scnc2C)cc1O[C@H]1CC[C@H](C(=O)N2CC(N3CCOc4c(Sc5cnc(N6CCC(C)(CN)CC6)cn5)cccc43)C2)CC1)C(C)(C)C [Example 34]", "SHP2 protein (Homo sapiens)", 73.0),
    ("CC(=O)N[C@H](C(=O)N1C[C@H](O)C[C@H]1C(=O)NCc1ccc(-c2scnc2C)cc1OC1CCN(C(=O)C2CCN(c3nccc(Sc4cnc(N5CCC(C)(N)CC5)c(CO)n4)c3Cl)CC2)CC1)C(C)(C)C [Example 79]", "SHP2 protein (Homo sapiens)", 99.9),
    ("Cc1ncsc1-c1ccc(CNC(=O)[C@@H]2C[C@@H](O)CN2C(=O)[C@@H](NC(=O)C2(F)CC2)C(C)(C)C)c(OC2CCN(CC3(O)CCN(c4nccc(Sc5cnc(N6CCC(C)(CN)CC6)cn5)c4Cl)CC3)CC2)c1 [Example 10]", "SHP2 protein (Homo sapiens)", 93.9),
]

Turning now to a further compound:
Input CC(=O)N[C@H](C(=O)N1C[C@H](O)C[C@H]1C(=O)NCc1ccc(-c2scnc2C)cc1OC1CCN(C(=O)C2CCN(c3cccc(Sc4cnc(N5CCC(C)(CN)CC5)c(CO)n4)c3Cl)CC2)CC1)C(C)(C)C [Example 83] , output reported SHP2% degradation.
99.7

Source listed as patent US20260144788A1.
